Origin of measurements: the supplement of paper PMC3334620

ASSAY TARGET: Sut1 (UniProt P53032)
Sequence: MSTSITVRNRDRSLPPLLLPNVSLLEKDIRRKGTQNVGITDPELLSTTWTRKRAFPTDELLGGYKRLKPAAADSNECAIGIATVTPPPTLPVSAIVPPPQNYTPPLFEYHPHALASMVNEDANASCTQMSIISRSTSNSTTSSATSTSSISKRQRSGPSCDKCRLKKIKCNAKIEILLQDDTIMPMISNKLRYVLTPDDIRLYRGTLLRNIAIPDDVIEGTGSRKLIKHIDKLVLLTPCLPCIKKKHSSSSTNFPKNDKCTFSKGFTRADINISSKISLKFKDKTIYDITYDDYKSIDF
MEASUREMENT NOTES: PBM E-score (8-mer binding enrichment) (E-score (-0.5 to 0.5)); higher = stronger / more preferred TF binding
TEST CONDITIONS: protein concentration: 200 nM; construct: GST-full length
In all, about 33,000 sequences were measured (“E-score (-0.5 to 0.5)”: median about -0.017, highest 2% from about 0.3 on). The sample as a whole holds a higher share of the highest values than the screen did.
Entry flag: True if PBM E-score reaches 0.04; False if it does not.

>  <CHAIN>
AATTGAAT

>  <ASSAY TARGET>
Sut1 (UniProt P53032)

>  <CATEGORY>
True

$$$$
>  <CHAIN>
ATGGGAAA

>  <ASSAY TARGET>
Sut1 (UniProt P53032)

>  <CATEGORY>
False

$$$$
>  <CHAIN>
ACTAAGTC

>  <ASSAY TARGET>
Sut1 (UniProt P53032)

>  <CATEGORY>
True

$$$$

*Q* Determine whether this sequence has PBM E-score no lower than 0.04: `ATTCGGAA`
*A* True

*Q* Say whether `CCACCCAG` shows PBM E-score of 0.04 or more.
*A* False

*Q* Reported PBM E-score at or above 0.04? `ATCGATCA`
*A* False

*Q* Exam item: decide whether the reported PBM E-score for `AGAACTAC` is at least 0.04.
*A* True

*Q* Item `ATTCGGAC` with PBM E-score of 0.04 or above?
*A* True

* * *

ASSAY TARGET: Sut1 (UniProt P53032)
Sequence: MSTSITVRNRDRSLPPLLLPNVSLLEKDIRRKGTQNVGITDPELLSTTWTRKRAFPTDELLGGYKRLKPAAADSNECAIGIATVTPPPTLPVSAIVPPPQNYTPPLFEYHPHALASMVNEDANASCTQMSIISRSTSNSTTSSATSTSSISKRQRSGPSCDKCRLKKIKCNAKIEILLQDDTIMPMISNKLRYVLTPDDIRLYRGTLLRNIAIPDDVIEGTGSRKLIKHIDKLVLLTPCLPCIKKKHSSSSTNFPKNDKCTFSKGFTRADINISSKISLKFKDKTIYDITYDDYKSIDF
MEASUREMENT NOTES: PBM E-score (8-mer binding enrichment) (E-score (-0.5 to 0.5)); higher = stronger / more preferred TF binding
TEST CONDITIONS: protein concentration: 200 nM; construct: GST-full length
In all, about 33,000 sequences were measured (“E-score (-0.5 to 0.5)”: median about -0.017, highest 2% from about 0.3 on). This is one part of a sample in which the highest values are shown more often than they occur.
Would you mind sorting the entries by PBM E-score according to these classes? label 0 = under 0.05, label 1 = from 0.05 up to 0.2, label 2 = 0.2 and over

Use these answered entries as a reference point.
>  <CHAIN>
CTCCGGTA

>  <CATEGORY>
label 2

$$$$
>  <CHAIN>
CACTCCCG

>  <CATEGORY>
label 0

$$$$
>  <CHAIN>
ATCCGGTA

>  <CATEGORY>
label 1

$$$$
>  <CHAIN>
CACTTTGC

>  <CATEGORY>
label 1

$$$$

*Q* Exam item: assign `GGAAAATA` to the correct category.
*A* label 2

*Q* In plain terms, what class is `GACTCCTC` ?
*A* label 1

*Q* GET /class?item= `TACTTACA`
*A* label 1

*Q* Lab log: `AACTCCGC` — assign PBM E-score category
*A* label 2

*Q* # bin lookup: classify `CGTTGCGC` by its PBM E-score
*A* label 0

* * *

ASSAY TARGET: Sut1 (UniProt P53032)
Sequence: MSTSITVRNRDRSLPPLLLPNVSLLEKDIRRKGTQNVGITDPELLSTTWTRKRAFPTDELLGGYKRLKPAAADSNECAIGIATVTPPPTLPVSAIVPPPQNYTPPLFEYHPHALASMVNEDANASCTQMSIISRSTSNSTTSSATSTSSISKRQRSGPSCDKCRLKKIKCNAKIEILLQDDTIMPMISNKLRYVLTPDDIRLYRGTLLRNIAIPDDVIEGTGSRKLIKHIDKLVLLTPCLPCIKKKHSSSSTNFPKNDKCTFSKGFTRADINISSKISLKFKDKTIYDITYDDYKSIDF
MEASUREMENT NOTES: PBM E-score (8-mer binding enrichment) (E-score (-0.5 to 0.5)); higher = stronger / more preferred TF binding
TEST CONDITIONS: protein concentration: 200 nM; construct: GST-full length
In all, about 33,000 sequences were measured (“E-score (-0.5 to 0.5)”: median about -0.017, highest 2% from about 0.3 on). What follows is part of a selection rich in the highest values, with near analogues and random picks from the rest.
ASSAY METRIC: PBM E-score
Give bare numbers.

Below: 5 sequences and their reported PBM E-score.
>  <CHAIN>
AGTATCAG

>  <ASSAY TARGET>
Sut1 (UniProt P53032)

>  <PBM E-score>
-0.0501

$$$$
>  <CHAIN>
AAATATAT

>  <ASSAY TARGET>
Sut1 (UniProt P53032)

>  <PBM E-score>
0.365

$$$$
>  <CHAIN>
CCCGGAGG

>  <ASSAY TARGET>
Sut1 (UniProt P53032)

>  <PBM E-score>
0.0148

$$$$
>  <CHAIN>
GTATACAC

>  <ASSAY TARGET>
Sut1 (UniProt P53032)

>  <PBM E-score>
-0.0284

$$$$
>  <CHAIN>
AACATGGG

>  <ASSAY TARGET>
Sut1 (UniProt P53032)

>  <PBM E-score>
-0.00269

$$$$

Each sequence below has a recorded value; state its PBM E-score.
1. GATGCTCC
2. ACCGGATA
3. AAATATAA
4. GGGGGTTA
5. ACCGGAGA

*A*
[0.17, 0.0607, 0.273, -0.405, 0.43]

* * *

ASSAY TARGET: Sut1 (UniProt P53032)
Sequence: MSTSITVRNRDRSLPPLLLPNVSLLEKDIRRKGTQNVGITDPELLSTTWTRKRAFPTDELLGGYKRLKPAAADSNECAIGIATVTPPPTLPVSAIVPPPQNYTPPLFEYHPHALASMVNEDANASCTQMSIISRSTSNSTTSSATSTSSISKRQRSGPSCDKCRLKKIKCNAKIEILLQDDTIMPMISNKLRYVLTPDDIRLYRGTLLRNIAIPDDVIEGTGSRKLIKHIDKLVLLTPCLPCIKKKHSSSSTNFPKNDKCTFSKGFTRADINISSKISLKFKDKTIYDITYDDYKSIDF
MEASUREMENT NOTES: PBM E-score (8-mer binding enrichment) (E-score (-0.5 to 0.5)); higher = stronger / more preferred TF binding
TEST CONDITIONS: protein concentration: 200 nM; construct: GST-full length
Over roughly 33,000 sequences, “E-score (-0.5 to 0.5)” has its median near -0.017; the highest 2% begin near 0.3. The list comes from a sample in which the highest values are over-represented; it also holds close analogues and randomly drawn sequences.
Is PBM E-score at least 0.2? Then T. If not, F.

Observe how each entry below is paired with its result.
>  <CHAIN>
CTCAGTTC

>  <ASSAY TARGET>
Sut1 (UniProt P53032)

>  <CATEGORY>
F

$$$$
>  <CHAIN>
CTGAGATC

>  <ASSAY TARGET>
Sut1 (UniProt P53032)

>  <CATEGORY>
F

$$$$
>  <CHAIN>
ATCCTCAT

>  <ASSAY TARGET>
Sut1 (UniProt P53032)

>  <CATEGORY>
F

$$$$
>  <CHAIN>
TGATCGCA

>  <ASSAY TARGET>
Sut1 (UniProt P53032)

>  <CATEGORY>
F

$$$$
>  <CHAIN>
ATGGTGTC

>  <ASSAY TARGET>
Sut1 (UniProt P53032)

>  <CATEGORY>
F

$$$$
>  <CHAIN>
TCCGGACA

>  <ASSAY TARGET>
Sut1 (UniProt P53032)

>  <CATEGORY>
T

$$$$

*Q* Given the entry `AGAGCGCA` , answer whether its PBM E-score meets or surpasses 0.2.
*A* F

*Q* Could you please find out whether `GATTCCGA` has PBM E-score that meets 0.2 or exceeds it?
*A* T

*Q* For this sequence, is measured PBM E-score 0.2 or higher? `AAGCTTAT`
*A* F

*Q* API: above_or_equal(metric=PBM E-score, cutoff=0.2) for item `TATTCCCA`
*A* F

*Q* Kindly determine if PBM E-score recorded for `CCGGACCA` is above or exactly 0.2.
*A* T

*Q* Dear colleague, could you confirm whether `CTCGGACA` has PBM E-score at or above 0.2?
*A* T

*Q* // inclusive: PBM E-score at least 0.2? input: `GCGACCGC`
*A* F

*Q* hey, is PBM E-score for this one >= 0.2? `ATCGGACC`
*A* T

*Q* Is the recorded value of PBM E-score equal to or greater than 0.2 for this sequence? `GAGGACTA`
*A* F

*Q* Can `GTCGGACA` be said to have PBM E-score at or above 0.2?
*A* T

*Q* Entry `AATTATAG` : is its PBM E-score no less than 0.2?
*A* T
